Test system: K-562 leukemia
Test: NCI tumour cell line growth inhibition, 48 h
MEASUREMENT_NAME: TGI

Previously resolved entries follow.
Oc1ccc(Cl)cc1C=Nc1cnc2ccccc2c1 :: > 100 µM
N#Cc1ccccc1NC(=O)C(=O)C(C(=O)c1ccccc1F)C1OC(=O)c2ccccc21 (stereo not given) :: > 100 µM
CC(C)C[C@@H](N)[C@@H](O)C(=O)N[C@H](C(=O)N[C@H](C(=O)N[C@@H](CC(=O)O)C(=O)O)C(C)C)C(C)C :: > 20 µM
CC(C)(C)C[C@H]1N[C@@H](C(=O)NC2CCC(O)CC2)[C@H](c2cccc(Cl)c2F)[C@@]12C(=O)Nc1cc(Cl)ccc12 (stereo not given in full) :: 18.7 µM
FC1=C2C3CCC(C3)C2C1(F)F (stereo not given) :: > 100 µM

Item "Cc1ccccc1NC(=O)CSc1nnc(-c2ccc(N=Cc3ccc(Cl)cc3)cc2)o1" with K-562 leukemia - TGI?
> 100 µM

Form: Entry = Cc1cc(Cl)ccc1NC(=O)CCCC(=O)C1C/C(=N/O)CC/C1=N\O (stereo not given) | System = K-562 leukemia | TGI = ____
> 100 µM

So what TGI did "N#C/C(=C\c1ccc2[nH]ccc2c1)C(=O)NCCCCNC(=O)/C(C#N)=C/c1ccc2[nH]ccc2c1" get with K-562 leukemia?
> 31.6 µM

Give TGI (K-562 leukemia) of the following compound: O=C(O)c1c(CC(Cc2ccc3c(c2)CCC3)C(=O)O)ccc2c1CCC2 (stereo not given)
> 100 µM

Record "CCOC(=O)c1c(-c2ccc(OC)cc2)ccn1C" : what is its TGI with K-562 leukemia?
> 10 µM
